- tested system: Epidermal growth factor receptor (Homo sapiens)
- assay overview: EGFR binders on small-molecule microarrays, primary screen, biochemical, small-molecule microarray, 635 nm fluorescence (AID 1104);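 further: score merges 667 nm emission intensity with spot signal to noise over triplicate slides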
- stated conditions: EGFR binding, higher = more signal
# composite z-score values compiled below
No unit in the answer, only the number.

C=CC[C@]1(C(=O)N2CCCCC2)N=C(c2ccc(OCCCO)cc2)O[C@H]1c1ccccc1 : 0.0792
O=C1C[C@]2(c3ccc([N+](=O)[O-])cc3)C(=O)N(CCN3CCOCC3)c3cc(CO)ccc3[C@H]2N1C1CCCCC1 : -0.517
CC(C)(C)OC(=O)CC[C@@]1(C(N)=O)N=C(c2ccc(OCCCO)cc2)O[C@@H]1c1ccccc1 : -0.467

Moving on to the next compound.
Returns the measured composite z-score for the input compound. Input: CN1C(=O)C2C=CC(C(O)Cc3ccccc3)N(Nc3ccccc3)C2C1=O (centres undefined) -0.389
